Would you mind telling me the reported growth of each entry?
system: CCRF-CEM leukemia; test: NCI-60 one-dose screen, 48 h (100 = growth as untreated, 0 = no growth, -100 = all killed); conditions: 10 µM unless noted
Compounds without any hit were thinned out: in the full panel of roughly 83,000, 20% have a hit.
Record the value in %, omitting the unit from your answer.

Problem: Any idea what growth was measured for C=CCSc1nnc(-c2ccc(-c3nc4ccc(Cl)cc4[nH]3)cc2)o1 ?
Result: 37.1

Problem: Any idea what growth was measured for CCOc1ccccc1[C@H]1C(C(=O)c2ccc(Cl)cc2)C2(N[C@@H]1c1ccccc1)C(=O)Nc1ccc(Cl)cc12 (some centres undefined) ?
Result: 26.2

Problem: Any idea what growth was measured for N#Cc1c(NC(=O)N2CCOCC2)n(-c2ccc(OC(F)(F)F)cc2)c2cc(F)ccc12 ?
Result: 85.5

Problem: Any idea what growth was measured for C/C(=N\Nc1ccc(S(N)(=O)=O)cc1)c1cnn(-c2cc(=O)[nH]c3ccc(Br)cc23)c1C ?
Result: 8.23

Problem: Any idea what growth was measured for CC(C)(C)OC(=O)N1CCC2(CC1)Oc1ccccc1[C@H]1CC(c3ccc(Br)cc3)=NN12 ?
Result: 58.2

Problem: Any idea what growth was measured for Clc1ccc2c(NCCNC34CC5CC(CC(C5)C3)C4)ccnc2c1 ?
Result: 4.53

Problem: Any idea what growth was measured for O=C1NC(=NC23CC4CC(CC(C4)C2)C3)N/C1=C\c1ccc2ncccc2c1 ?
Result: -15

Problem: Any idea what growth was measured for CCCSc1nnc(-c2sc3nc4ccccc4n3c2C)o1 ?
Result: 107

Problem: Any idea what growth was measured for CCN1C(=O)N(CC)C2NNC(Sc3c(C(=O)O)c4ccccc4n(CCC(C)C)c3=O)=NC21 (centres undefined) ?
Result: 7.16

* * *

test system: HOP-62 NSCLC; assay: NCI-60 one-dose screen, 48 h (100 = growth as untreated, 0 = no growth, -100 = all killed); details: 10 µM unless noted
Compounds without any hit were thinned out: in the full panel of roughly 83,000, 20% have a hit.
Would you mind telling me the reported growth of each entry?
Record the value in %, omitting the unit from your answer.

Problem: Any idea what growth was measured for CC(Nc1ncnc2ccc(-c3ccc4oc(N)nc4c3)cc12)c1ccccc1 (stereo not given) ?
Result: -53.1

Problem: Any idea what growth was measured for CCN1C(=O)N(CC)C2NNC(Sc3c(C(=O)O)c4ccccc4n(CC(C)C)c3=O)=NC21 (stereo not given) ?
Result: 34.1

Problem: Any idea what growth was measured for COc1nc(N)ncc1-c1ccc2ncnc(N3CCc4cc(F)c(Cl)cc43)c2c1 ?
Result: -54.4

Problem: Any idea what growth was measured for FC(F)(F)CN1CCN(CCn2c(C(F)(F)F)cc3c(Cl)ncnc32)CC1 ?
Result: 40.2

Problem: Any idea what growth was measured for CC1=C(C(=O)Nc2ccccc2)C(c2cccc3ccccc23)n2c(nc3ccccc32)N1 (stereo not given) ?
Result: -61.9

Problem: Any idea what growth was measured for Cc1ccc(C(=O)Nc2ccc(-n3ccnc3)c(C(F)(F)F)c2)cc1C#Cc1cnc2cccnn12 ?
Result: -20.3

Problem: Any idea what growth was measured for CN1CCN(CCS(=O)(=O)Nc2cc(-c3ccc4ncnc(Nc5ccc(F)c(Cl)c5)c4c3)cnc2Cl)CC1 ?
Result: 39.9

Problem: Any idea what growth was measured for Cc1ccc(O)cc1Nc1nc(SCCN2CCOCC2)nc2c1cnn2CC(Cl)c1ccc(Br)cc1 (stereo not given) ?
Result: 23

Problem: Any idea what growth was measured for O=C(CSc1nnc(-c2ccc(-c3nc4ccc(Cl)cc4[nH]3)cc2)o1)Nc1ccc(Cl)cc1 ?
Result: -13.6

Problem: Any idea what growth was measured for CCC(=O)c1c2c(c3ccc4c5ccccc5ccc4n13)C(=O)c1ccccc1C2=O ?
Result: 81.7

Problem: Any idea what growth was measured for COc1ccc2c(c1)C(Sc1ccc(F)cc1)c1c(nc(N)c(C#N)c1N)O2 (stereo not given) ?
Result: 111

Problem: Any idea what growth was measured for Nc1cc(-c2c[nH]c3ccc(Cl)cc23)nc2cc(-c3c[nH]c4ccccc34)nn12 ?
Result: -48

Problem: Any idea what growth was measured for CCCCCCCCc1ccc(C(=O)Nc2ccc(C)cc2C(=O)O)cc1 ?
Result: 96.3

Problem: Any idea what growth was measured for COc1ccc(NC(=O)NN2C(=O)c3ccccc3N(C)C2c2ccc(OC)cc2)cc1 (stereo not given) ?
Result: 97.8

Problem: Any idea what growth was measured for O=C(c1ccc(O)cc1)C1[C@H](c2ccc(Cl)cc2)[C@@H](c2ccccc2)NC12C(=O)Nc1ccccc12 (stereo not given in full) ?
Result: -20.1

Problem: Any idea what growth was measured for COC(=O)c1cc(C(=O)C(F)(F)F)n2c3ccccc3c3ccccc3c12 ?
Result: 41.1

Problem: Any idea what growth was measured for CCCCNC(=S)Nc1ccc(OCc2nc3ccc(Cl)cc3[nH]2)cc1 ?
Result: 49.5

Problem: Any idea what growth was measured for NS(=O)(=O)c1cccc(Nc2nc(SCC(=O)c3ccc(F)cc3)nc3ccccc23)c1 ?
Result: 5.89

Problem: Any idea what growth was measured for COc1ccc(-c2cc(-c3ccccc3)c(C#N)c(=O)[nH]2)cc1S(N)(=O)=O ?
Result: 97.6

Problem: Any idea what growth was measured for CC(=O)C[n+]1cccc2c3ccccc3ccc21 ?
Result: 109

* * *

system: UACC-257 melanoma; experiment: NCI-60 one-dose screen, 48 h (100 = growth as untreated, 0 = no growth, -100 = all killed); settings: 10 µM unless noted
This is part of a sample that, as a whole, favours compounds with a hit. Of some 83,000 tested, about 20% had one in any assay.
Threshold check on growth: strictly below 20% is 1.0; on or above 20% is 0.0.

Problem: Please indicate whether the reported growth of Cc1ccc(C(=O)Nc2cc(-n3ccnc3C)cc(C(F)(F)F)c2)cc1C#Cc1cnc2cccnn12 is strictly below 20%.
Result: 1.0

Problem: Please indicate whether the reported growth of CC(C)(C)OC(=O)N1C/C(=C\c2ccc(F)cc2)C(=O)/C(=C/c2ccc(F)cc2)C1 is strictly below 20%.
Result: 1.0

Problem: Please indicate whether the reported growth of Cn1cc(-c2cc(N)n3nc(-c4c[nH]c5ccccc45)cc3n2)c2ccccc21 is strictly below 20%.
Result: 1.0

Problem: Please indicate whether the reported growth of CCN1C(=O)N(CC)C2NNC(Sc3c(C(=O)O)c4ccccc4n(CC(C)C)c3=O)=NC21 (centres undefined) is strictly below 20%.
Result: 0.0

Problem: Please indicate whether the reported growth of CCCCNc1ccc2c3c(cccc13)C(=O)N(c1cccc(-c3nn(-c4ccccc4)cc3-c3nc4ccccc4s3)c1)C2=O is strictly below 20%.
Result: 0.0

Problem: Please indicate whether the reported growth of Nc1cc(-c2c[nH]c3ccc(Cl)cc23)nc2cc(-c3c[nH]c4ccccc34)nn12 is strictly below 20%.
Result: 1.0

Problem: Please indicate whether the reported growth of CN(C)c1nc(NCCNS(=O)(=O)c2ccc(C3=Nc4c(N)nc(N)nc4NC(c4ccc(Cl)cc4)C3)cc2)nc(N2CCOCC2)n1 (centres undefined) is strictly below 20%.
Result: 0.0

Problem: Please indicate whether the reported growth of Cc1[nH]nc2ccc3nc(-c4cn[nH]c4C(F)(F)F)c4c(c3c12)CCCC4 is strictly below 20%.
Result: 1.0

Problem: Please indicate whether the reported growth of COc1ccc(N=Nc2c(N)nn3c(N)c(C#N)c(-c4ccc(C)cc4)nc23)cc1 is strictly below 20%.
Result: 0.0

* * *

test system: 786-0 renal; experiment: NCI-60 one-dose screen, 48 h; settings: 10 µM unless noted
Compounds without any hit were thinned out: in the full panel of roughly 83,000, 20% have a hit. Active and inactive are the calls of the source. The calls were made as follows: active = growth percent below 10; inactive = the rest.
Valid outcomes are listed here; reply with one: active, inactive

Problem: Recorded test outcome, item COc1ccc(C(=O)C[n+]2cccc3c4ccccc4ccc32)cc1
Result: inactive

Problem: Recorded test outcome, item CCCCN1C(=O)/C(=C\C(=O)c2cc3ccccc3oc2=O)c2ccccc21
Result: inactive

Problem: Recorded test outcome, item Cc1cnc2ccc(Oc3ccccc3-c3ccccc3)nn12
Result: inactive

Problem: Recorded test outcome, item Cc1cc(=O)oc2cc(OCC(O)CNN3C(=O)c4cccc5c(N6CCN(C)CC6)ccc(c45)C3=O)ccc12 (centres undefined)
Result: inactive

Problem: Recorded test outcome, item COc1ccc(-c2nc3ccc(-c4nnc(SCC(=O)Nc5ccc(/C(C)=N\O)cc5)o4)cc3[nH]2)cc1
Result: active

Problem: Recorded test outcome, item COc1cc(CNC(=O)C[C@H](C)CCC=C(C)C)ccc1OCc1cn(-c2ccccc2F)nn1
Result: inactive

Problem: Recorded test outcome, item CN(C)c1nc(NCCNS(=O)(=O)c2ccc(C3=Nc4c(N)nc(N)nc4NC(c4ccc(Cl)cc4)C3)cc2)nc(N2CCOCC2)n1 (centres undefined)
Result: inactive

Problem: Recorded test outcome, item CC[C@]12C=CCN3CC[C@]4(C(=C(C(=O)OC)C1)Nc1cc(OC)c([C@@H]5[C@H]6O[C@H]6[C@@]6(CC)CC(C(=O)OC)=C7Nc8cc(O)ccc8[C@@]78CCN5[C@@H]68)cc14)[C@@H]32
Result: active

Problem: Recorded test outcome, item C#CCN(C)CCCOc1ccc(N(C)C(=O)c2cc(C(C)C)c(O)cc2O)cc1Cl
Result: inactive

Problem: Recorded test outcome, item O=c1[nH]c2ccccc2cc1COc1ccc(Nc2nccc(-c3ccc(Cl)cc3)n2)cc1
Result: inactive

Problem: Recorded test outcome, item COc1ccc2[nH]cc(-c3cc4nc(-c5cn(C)c6ncc(Br)cc56)cc(N)n4n3)c2c1
Result: active

Problem: Recorded test outcome, item O=C1NC(=S)/C(=C/c2cn(-c3ccccc3)nc2-c2ccccc2)S1
Result: inactive

Problem: Recorded test outcome, item Cc1nc2sccn2c1-c1nnc(SCc2ccccc2)o1
Result: inactive

Problem: Recorded test outcome, item COc1cc(/C=C/C(=O)c2cnn(-c3cc(=O)[nH]c4ccccc34)c2C)cc(OC)c1OC
Result: inactive

Problem: Recorded test outcome, item FC(F)(F)CN1CCN(CCn2c(C(F)(F)F)cc3c(Cl)ncnc32)CC1
Result: inactive

Problem: Recorded test outcome, item CC(=O)c1ccc2c(N)c(C(=O)Nc3ccc(C(F)(F)F)cc3)sc2n1
Result: inactive

Problem: Recorded test outcome, item Fc1ccccc1CNc1nc(SCCN2CCOCC2)nc2c1cnn2CC(Cl)c1ccc(Br)cc1 (centres undefined)
Result: active

Problem: Recorded test outcome, item FC(F)(F)c1cc2c(Cl)ncnc2n1CCN1CCOCC1
Result: inactive

Problem: Recorded test outcome, item Nc1nnc(-c2cncc(Br)c2)c(-c2c[nH]c3ccc(Br)cc23)n1
Result: inactive
